measured-target: recombinant human lysosomal β-glucocerebrosidase (GCase, GH30) (Homo sapiens, UniProt P04062)
Sequence (P04062 40-536): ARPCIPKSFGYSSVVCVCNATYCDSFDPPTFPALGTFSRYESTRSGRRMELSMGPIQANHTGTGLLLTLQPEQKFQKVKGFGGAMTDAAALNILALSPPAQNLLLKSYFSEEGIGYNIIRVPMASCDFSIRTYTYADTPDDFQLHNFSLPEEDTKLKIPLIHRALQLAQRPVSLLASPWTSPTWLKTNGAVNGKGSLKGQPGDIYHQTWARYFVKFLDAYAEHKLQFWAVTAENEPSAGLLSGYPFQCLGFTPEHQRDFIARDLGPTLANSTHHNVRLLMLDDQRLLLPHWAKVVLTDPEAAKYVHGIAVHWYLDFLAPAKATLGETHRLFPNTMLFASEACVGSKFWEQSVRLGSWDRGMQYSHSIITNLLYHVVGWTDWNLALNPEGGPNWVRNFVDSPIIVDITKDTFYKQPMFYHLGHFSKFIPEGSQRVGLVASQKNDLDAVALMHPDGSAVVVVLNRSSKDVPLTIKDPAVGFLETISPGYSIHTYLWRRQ
protocol-summary: Ki determination, GCase (β-glucocerebrosidase)
Assay type: biochemical
details: 37 °C, pH 7, substrate 2,4-DNP β-Glc
recorded-endpoint: Ki (µM)
Please respond with the number in µM and leave the unit unwritten.

molecule	Ki (µM)
CN(C)c1cccc2c(S(=O)(=O)NCCCCCCN[C@H]3[C@H](F)[C@@H](O)[C@@H](O)[C@H]3CO)cccc12	3
CN(C)c1cccc2c(S(=O)(=O)NCCCCCC[C@H]3NC[C@@H](O)[C@@H](O)[C@H]3CO)cccc12	0.003
CCCCCCCCNC1C=C(CO)C(O)C(O)C1O (stereo not drawn) [Compound 1, N-octyl-epi-valienamine]	83

// recorded Ki for "CCCCCCCCN[C@H]1[C@H](O)[C@@H](O)[C@@H](O)[C@H]1CO" : 0.0639

// recorded Ki for "CN(C)c1cccc2c(S(=O)(=O)NCCCCCCN[C@H]3C[C@@H](O)[C@@H](O)[C@H]3CO)cccc12" : 22.6

----------
Recorded Ki for the following compounds
measured-target: β-galactosidase from bovine liver (GH35) (Bos taurus)
Construct: Bovine liver β-galactosidase; from tissue; host or cells: bovine liver
Sequence (Q58D55 28-653): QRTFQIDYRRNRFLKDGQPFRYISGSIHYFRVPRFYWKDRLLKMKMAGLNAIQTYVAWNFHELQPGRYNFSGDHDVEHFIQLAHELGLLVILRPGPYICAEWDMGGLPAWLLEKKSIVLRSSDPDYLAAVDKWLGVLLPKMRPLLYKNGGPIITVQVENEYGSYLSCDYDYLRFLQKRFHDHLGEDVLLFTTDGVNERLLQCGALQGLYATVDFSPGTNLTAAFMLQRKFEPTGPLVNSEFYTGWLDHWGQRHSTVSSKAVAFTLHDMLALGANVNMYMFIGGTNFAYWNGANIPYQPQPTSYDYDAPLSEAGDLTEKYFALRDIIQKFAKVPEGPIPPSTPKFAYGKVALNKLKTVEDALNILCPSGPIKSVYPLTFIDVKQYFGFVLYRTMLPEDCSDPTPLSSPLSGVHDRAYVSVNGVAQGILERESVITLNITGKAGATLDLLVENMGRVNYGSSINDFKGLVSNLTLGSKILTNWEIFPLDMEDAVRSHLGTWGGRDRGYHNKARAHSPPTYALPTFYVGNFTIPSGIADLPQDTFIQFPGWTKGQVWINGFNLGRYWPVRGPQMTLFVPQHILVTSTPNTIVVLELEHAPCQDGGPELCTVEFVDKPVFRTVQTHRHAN
protocol-summary: Ki determination, bovine liver β-galactosidase
Format: biochemical
details: 37 °C, pH 7, substrate pNP β-Gal
Form field: result (number plus unit)

structure	Ki
CN(C)c1cccc2c(S(=O)(=O)NCCCCCCN[C@H]3[C@H](F)[C@@H](O)[C@@H](O)[C@H]3CO)cccc12	137 nM
CN(C)c1cccc2c(S(=O)(=O)NCCCCCC[C@H]3NC[C@@H](O)[C@@H](O)[C@H]3CO)cccc12	0.5 nM
CN(C)c1cccc2c(S(=O)(=O)NCCCCCCN[C@H]3C[C@@H](O)[C@@H](O)[C@H]3CO)cccc12	102 nM

Okay, next one:
// recorded Ki for "CCCCCCCCN[C@H]1[C@H](O)[C@@H](O)[C@@H](O)[C@H]1CO" : 117 nM

----------
measured-target: α-glucosidase from S. cerevisiae (GH13)
protocol-summary: Ki determination, S. cerevisiae α-glucosidase
Assay type: biochemical
details: 37 °C, pH 7.0, substrate pNP α-Glc; read-out: Ki S. cer. (α-Glc) (GH13)
pKi: −log10 of the molar value.
Recorded pKi for the following compounds

# example entries with known answers
compound	pKi
CCCCCCCCNC1C=C(CO)C(O)C(O)C1O (stereo not drawn) [Compound 1, N-octyl-epi-valienamine]	< 3.00
CCCCCCCCN[C@H]1[C@H](O)[C@@H](O)[C@@H](O)[C@H]1CO	< 3.00
CN(C)c1cccc2c(S(=O)(=O)NCCCCCCN[C@H]3[C@H](F)[C@@H](O)[C@@H](O)[C@H]3CO)cccc12	4.65

// recorded pKi for "CN(C)c1cccc2c(S(=O)(=O)NCCCCCCN[C@H]3C[C@@H](O)[C@@H](O)[C@H]3CO)cccc12" : < 3.00

// recorded pKi for "CN(C)c1cccc2c(S(=O)(=O)NCCCCCC[C@H]3NC[C@@H](O)[C@@H](O)[C@H]3CO)cccc12" : < 3.00

----------
measured-target: human lysosomal acid β-galactosidase (GH35) (Homo sapiens, UniProt P16278)
Construct: endogenous in cells; host or cells: normal human skin fibroblasts (homogenate)
Sequence (P16278 29-677): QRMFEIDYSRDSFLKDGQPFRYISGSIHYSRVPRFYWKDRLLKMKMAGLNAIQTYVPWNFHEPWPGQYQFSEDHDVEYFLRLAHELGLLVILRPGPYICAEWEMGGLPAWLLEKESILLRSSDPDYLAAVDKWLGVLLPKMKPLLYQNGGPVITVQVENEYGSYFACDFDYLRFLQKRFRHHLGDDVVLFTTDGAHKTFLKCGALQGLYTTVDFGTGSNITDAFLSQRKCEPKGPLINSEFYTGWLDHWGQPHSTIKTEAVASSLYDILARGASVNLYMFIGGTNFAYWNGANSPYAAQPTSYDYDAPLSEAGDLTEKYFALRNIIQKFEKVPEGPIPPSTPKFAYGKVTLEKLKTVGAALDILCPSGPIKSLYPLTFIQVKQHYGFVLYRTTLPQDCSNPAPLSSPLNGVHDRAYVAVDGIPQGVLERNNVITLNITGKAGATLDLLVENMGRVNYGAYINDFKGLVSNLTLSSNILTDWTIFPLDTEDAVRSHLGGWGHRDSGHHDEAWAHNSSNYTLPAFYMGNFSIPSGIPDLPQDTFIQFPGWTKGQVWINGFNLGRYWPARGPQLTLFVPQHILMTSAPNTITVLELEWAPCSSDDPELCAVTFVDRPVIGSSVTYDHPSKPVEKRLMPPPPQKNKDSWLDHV
protocol-summary: IC50, modified β-Gal assay in normal fibroblast homogenate
Format: biochemical
details: normal fibroblasts, 4-methylumbelliferyl-β-D-galactopyranoside, pH 4.0; read-out: β-Gal human lys. (GH35); IC50
Recorded pIC50 for the following compounds
pIC50 is a log-scale quantity: -log10 of the concentration expressed in molar.

compound	pIC50
CCCCCCCCN[C@H]1[C@H](O)[C@@H](O)[C@@H](O)[C@H]1CO	6.38
CN(C)c1cccc2c(S(=O)(=O)NCCCCCC[C@H]3NC[C@@H](O)[C@@H](O)[C@H]3CO)cccc12	7.03
CN(C)c1cccc2c(S(=O)(=O)NCCCCCCN[C@H]3[C@H](F)[C@@H](O)[C@@H](O)[C@H]3CO)cccc12	4.46
CCCCCCCCNC1C=C(CO)C(O)C(O)C1O (stereo not drawn) [Compound 1, N-octyl-epi-valienamine]	6.29

Okay, next one:
// recorded pIC50 for "CN(C)c1cccc2c(S(=O)(=O)NCCCCCCN[C@H]3C[C@@H](O)[C@@H](O)[C@H]3CO)cccc12" : 4.08

----------
measured-target: lac Z β-galactosidase from E. coli (GH2) (Escherichia coli)
Sequence (P00722 2-1024): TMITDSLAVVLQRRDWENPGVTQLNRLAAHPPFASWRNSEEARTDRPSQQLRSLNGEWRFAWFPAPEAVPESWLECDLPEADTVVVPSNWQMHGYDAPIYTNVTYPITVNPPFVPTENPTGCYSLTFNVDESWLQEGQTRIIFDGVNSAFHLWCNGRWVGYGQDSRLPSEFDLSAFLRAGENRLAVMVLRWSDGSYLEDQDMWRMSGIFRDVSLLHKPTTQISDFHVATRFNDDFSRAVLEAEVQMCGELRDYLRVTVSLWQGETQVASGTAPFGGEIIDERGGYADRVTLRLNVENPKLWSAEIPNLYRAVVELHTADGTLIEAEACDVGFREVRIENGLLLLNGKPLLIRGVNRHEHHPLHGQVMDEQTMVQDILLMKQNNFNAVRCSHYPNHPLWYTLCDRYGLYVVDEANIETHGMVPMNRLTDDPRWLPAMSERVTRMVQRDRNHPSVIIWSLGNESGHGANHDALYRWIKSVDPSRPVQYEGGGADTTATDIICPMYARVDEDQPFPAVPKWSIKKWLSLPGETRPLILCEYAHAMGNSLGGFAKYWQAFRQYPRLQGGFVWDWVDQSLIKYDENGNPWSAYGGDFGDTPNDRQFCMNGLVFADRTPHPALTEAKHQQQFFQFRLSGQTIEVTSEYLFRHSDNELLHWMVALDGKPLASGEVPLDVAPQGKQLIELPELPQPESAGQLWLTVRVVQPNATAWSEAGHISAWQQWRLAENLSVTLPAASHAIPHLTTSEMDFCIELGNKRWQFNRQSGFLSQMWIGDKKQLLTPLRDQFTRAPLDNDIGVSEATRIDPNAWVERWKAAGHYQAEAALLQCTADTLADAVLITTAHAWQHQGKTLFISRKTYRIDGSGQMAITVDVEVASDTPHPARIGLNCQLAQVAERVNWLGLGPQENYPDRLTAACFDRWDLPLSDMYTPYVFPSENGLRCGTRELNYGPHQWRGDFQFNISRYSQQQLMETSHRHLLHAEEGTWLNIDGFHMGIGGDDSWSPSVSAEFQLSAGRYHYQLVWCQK
protocol-summary: Ki determination, E. coli lac Z β-galactosidase
Type: biochemical
recorded-endpoint: Ki (nM)
Please respond with the number in nM and leave the unit unwritten.

compound	recorded-endpoint	value-measured
CN(C)c1cccc2c(S(=O)(=O)NCCCCCCN[C@H]3C[C@@H](O)[C@@H](O)[C@H]3CO)cccc12	Ki	4.1
CN(C)c1cccc2c(S(=O)(=O)NCCCCCCN[C@H]3[C@H](F)[C@@H](O)[C@@H](O)[C@H]3CO)cccc12	Ki	5200
CCCCCCCCNC1C=C(CO)C(O)C(O)C1O (stereo not drawn) [Compound 1, N-octyl-epi-valienamine]	Ki	2800
CN(C)c1cccc2c(S(=O)(=O)NCCCCCC[C@H]3NC[C@@H](O)[C@@H](O)[C@H]3CO)cccc12	Ki	0.4

Okay, next one:
// recorded Ki for "CCCCCCCCN[C@H]1[C@H](O)[C@@H](O)[C@@H](O)[C@H]1CO" : 13.2

----------
Recorded Ki for the following compounds
measured-target: β-glucosidase/β-galactosidase from Agrobacterium sp. (Abg, GH1) (Agrobacterium sp.)
Sequence (P12614 whole entry): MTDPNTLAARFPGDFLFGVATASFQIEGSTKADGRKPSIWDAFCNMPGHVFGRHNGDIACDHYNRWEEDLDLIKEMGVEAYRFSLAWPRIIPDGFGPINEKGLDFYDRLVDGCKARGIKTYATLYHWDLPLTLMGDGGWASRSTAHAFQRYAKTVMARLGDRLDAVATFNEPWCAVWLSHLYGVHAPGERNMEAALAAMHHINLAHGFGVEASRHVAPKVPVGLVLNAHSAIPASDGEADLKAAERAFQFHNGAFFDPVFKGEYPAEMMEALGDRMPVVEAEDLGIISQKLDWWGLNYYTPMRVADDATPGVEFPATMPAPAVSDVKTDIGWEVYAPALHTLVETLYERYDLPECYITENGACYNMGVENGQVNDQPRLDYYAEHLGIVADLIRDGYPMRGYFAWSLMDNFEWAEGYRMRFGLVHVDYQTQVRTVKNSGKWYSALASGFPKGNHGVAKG
protocol-summary: Ki determination, Agrobacterium sp. β-glucosidase/β-galactosidase (Abg)
Type: biochemical
details: 37 °C, pH 7, substrate pNP β-Gal; read-out: Ki Abg (β-Glc/Gal) (GH1)
Please respond with the number in nM and leave the unit unwritten.

compound	measured-target	Ki [nM]
CCCCCCCCN[C@H]1[C@H](O)[C@@H](O)[C@@H](O)[C@H]1CO [Compound 16]	β-glucosidase/β-galactosidase from Agrobacterium sp. (Abg, GH1) (Agrobacterium sp.)	1
CCCCCCCCNC1C=C(CO)C(O)C(O)C1O (stereo not drawn) [Compound 1, N-octyl-epi-valienamine]	β-glucosidase/β-galactosidase from Agrobacterium sp. (Abg, GH1) (Agrobacterium sp.)	7700
CN(C)c1cccc2c(S(=O)(=O)NCCCCCC[C@H]3NC[C@@H](O)[C@@H](O)[C@H]3CO)cccc12 [Compound 22]	β-glucosidase/β-galactosidase from Agrobacterium sp. (Abg, GH1) (Agrobacterium sp.)	0.3
CN(C)c1cccc2c(S(=O)(=O)NCCCCCCN[C@H]3[C@H](F)[C@@H](O)[C@@H](O)[C@H]3CO)cccc12 [Compound 37]	β-glucosidase/β-galactosidase from Agrobacterium sp. (Abg, GH1) (Agrobacterium sp.)	77

So the reported Ki for CN(C)c1cccc2c(S(=O)(=O)NCCCCCCN[C@H]3C[C@@H](O)[C@@H](O)[C@H]3CO)cccc12 [Compound 31] , on β-glucosidase/β-galactosidase from Agrobacterium sp. (Abg, GH1) (Agrobacterium sp.), turned out to be 3.5
